# system_name: T1, MHC class I allele A*0301 (bound via biotin to streptavidin-coated plate)
# T1 construct: iTopia MHC class I monomer on the plate; placeholder peptide and b2M removed, then reconstituted with test peptide and fresh b2M; also called A3; HLA A3
# protocol_summary: iTopia peptide binding assay
measurement_kind: % of positive control peptide binding (%)

INSERT INTO assay_data (binder, uom, measured_result) VALUES
  ('ECSEAARTV (also called Peptide No 34) [5T4 9 mer peptide 34 ECSEAARTV]', '%', 0),
  ('VPTDLPAYV (also called Peptide No 43) [5T4 9 mer peptide 43 VPTDLPAYV]', '%', 0),
  ('RRPPLAELA (also called Peptide No 57) [5T4 9 mer peptide 57 RRPPLAELA]', '%', 2),
  ('VRNLFLTGN (also called Peptide No 47) [5T4 9 mer peptide 47 VRNLFLTGN]', '%', 0);
